tested on: Plasmodium berghei; test: Luciferase/luciferin-expressing antifolate-resistant parasites were used to infect a culture of HepG2 cells that were pre-incubated with compounds. Infected hepatocytes emit light due to the luciferase reaction. Assay results are presented as the percent inhibition of light emission compared to control. […]; assay type: functional; conditions: sporozoite, read-out: LUCIFERASE INFECTION ASSAY - IC50
pIC50: −log10 of the molar value.
Each entry below carries its reported pIC50.

{"compound": "COc1ccc(OC)c(NC(=O)C2(C)CCN2Cc2ccc(C(C)C)cc2)c1 (stereo not given)", "pIC50": "< 5.06"}
{"compound": "O=C(Nc1ccccc1)C1=C(N2CCOCC2)/C(=C/c2ccc(Br)cc2)CC1", "pIC50": "< 5.00"}
{"compound": "CC(CNC(=O)C1CCN(S(=O)(=O)c2cccs2)CC1)c1nc2ccccc2n1C(F)F (stereo not given)", "pIC50": "< 5.00"}
{"compound": "COc1cccc(Nc2nc(C(N)Cc3ccc(F)cc3)cs2)n1 (stereo not given)", "pIC50": "< 5.02"}
{"compound": "COc1ccc(C(=O)Nc2cccc(/C=C/C(=O)c3ccc(C4CCCCC4)cc3)c2)cc1", "pIC50": 5.12}
{"compound": "COc1ccc(Sc2ccc(NC(=O)c3ccc(Cl)cc3Cl)cc2C#N)cc1", "pIC50": "< 5.11"}
{"compound": "Cc1oc(=S)n(CN2CCN(S(=O)(=O)c3ccc4ccccc4c3)CC2)c1C", "pIC50": "< 5.00"}
{"compound": "COc1ccc(C(=O)N2CCN(C(c3ccc(F)cc3)c3ccc(F)cc3)CC2)cc1S(=O)(=O)NCCN(C)C", "pIC50": "< 5.00"}
{"compound": "Cc1cc(Oc2ccc(C(F)(F)F)cc2N=CC(C#N)C#N)cc(C)c1Cl", "pIC50": "< 5.07"}
{"compound": "Cc1noc(C)c1COc1ccc(C(=O)OCC(=O)NC(C)C23CC4CC(CC(C4)C2)C3)cc1 (stereo not given)", "pIC50": "< 5.00"}
